# System: Streptococcus suis P1/7
# measurement notes: percent growth relative to DMSO control; higher = less growth inhibition
# cond: 10 µM; incubation time 18 h
recorded metric: percent growth (%)
Hi! Could you send only the number? It should be in %, unit omitted.

## Input What percent growth value was documented for this compound, Cc1ccccc1CN1CCC(O)(c2ccc(Cl)c(C(F)(F)F)c2)CC1 ?
## Output 102

## Input For O=C(C1CCN(c2nnc(-n3cccc3)s2)CC1)N1CCC(Cc2ccccc2)CC1 then?
## Output 100

## Input For O=C(Cn1ccnc1[N+](=O)[O-])NCc1ccccc1 then?
## Output 114

## Input For Cc1cc(C)n(-c2ccc(NC(=O)C3CCN(Cc4cnc(C)s4)CC3)cc2)n1 then?
## Output 65.6

## Input For Cc1cc(Nc2ccncc2)n2nc(C)c(-c3ccccc3Cl)c2n1 then?
## Output 105

## Input For CCCCc1ccc(NC(=O)Nc2ccc(O[C@H]3CCCC[C@@H]3N(C)c3ccccc3)c(F)c2)cc1 then?
## Output 67.2

## Input For N#Cc1ccc(-c2cnc(N)c(-c3ccc(C(N)=O)cc3)n2)cc1 then?
## Output 73.1

## Input For COc1ccc(Nc2ccccc2NC(=O)c2ccc(O)nc2)cc1 then?
## Output 99.1

## Input For Clc1ccc(CCNc2cc(-c3ccccc3)nc3ncnn23)cc1 then?
## Output 81.5

## Input For COc1ccc(CN2CCOc3ccc(C(C)(O)CN(C)C)cc3C2)cc1C (configuration not stated) then?
## Output 101

## Input For O=C(Nc1ccnc(-c2cccnc2)n1)c1cc(C(F)(F)F)cc(C(F)(F)F)c1 then?
## Output 123

## Input For O=C(NC1CC1)c1ccc(N2CCOc3ccc(Cl)cc32)s1 then?
## Output 85.5

## Input For Cc1cc2nc(NC(=O)C(C)(C)C)nc(Cl)c2n1Cc1ccc(Cl)cc1 then?
## Output 109

## Input For O=C(Nc1nc(-c2ccccn2)cs1)C1CC1c1ccccc1F (configuration not stated) then?
## Output 2.29

## Input For CCCS(=O)(=O)N1CCC(CO)(Cc2ccccc2C(F)(F)F)CC1 then?
## Output 82.4

## Input For CC(C)(C)OC(=O)N1CCN(c2cc(-c3ccc(Oc4ccccc4)cc3)n[nH]2)CC1 then?
## Output 28.7

## Input For COc1cccc(-n2nnnc2S(C)(=O)=O)c1 then?
## Output 67.1

## Input For CCCCOC(=O)Nc1cc2nc(C3CCCCC3)[nH]c2cc1N1CCCC1 then?
## Output 62.9

## Input For CCN(CC)CCCCCCNc1cc(OC)cc2c(C)ccnc12 then?
## Output 83.2

## Input For CS(=O)(=O)c1ccccc1C(=O)N(Cc1ccccc1)c1ccccc1 then?
## Output 107

## Input For CCOC(=O)c1noc(N)c1-c1ccccc1 then?
## Output 113

## Input For COc1cccc(-n2nnnc2S(=O)(=O)Cc2ccccc2)c1 then?
## Output 64.7

## Input For CC(C)(C)n1nc(Cc2cccc3ccccc23)c2c(N)ncnc21 then?
## Output 87.7

## Input For Cc1ccc(S(=O)(=O)Nc2ccc(CN3CCN(C(=O)c4cccc(C#N)c4)CC3)cc2)cc1 then?
## Output 114

## Input For Cc1nn2c(O)c3c(nc2c1-c1ccc(F)cc1)CCCC3 then?
## Output 45.5

## Input For COc1cncc(-c2cncc(N3CCN(c4ccncc4)CC3)n2)c1 then?
## Output 64.3

## Input For CCC(C)NC(=O)c1ccc(NC(=O)C2(c3ccccc3)CCCC2)cc1 (configuration not stated) then?
## Output 78.1

## Input For C[C@@H]1[C@H](O)[C@@H](C)/C=C/C=C/C=C/C=C/C=C/C=C/C=C/[C@H](O[C@@H]2O[C@H](C)[C@@H](O)[C@H](N)[C@@H]2O)C[C@@H]2O[C@](O)(C[C@@H](O)C[C@@H](O)[C@H](O)CC[C@@H](O)C[C@@H](O)CC(=O)O[C@H]1C)C[C@H](O)[C@H]2C(=O)O then?
## Output 92.3

## Input For CN1CCN(c2cc(-c3ccc(F)cc3)nc(-c3ccncc3)n2)CC1 then?
## Output 89.1

## Input For CC1CC1C(=O)NC1CCN(CC2(c3ccccc3)CCCCC2)CC1 (configuration not stated) then?
## Output 71.1

## Input For NS(=O)(=O)c1cccc(-c2ccc3ncc(N4CCOCC4)nc3c2)c1 then?
## Output 71.6

## Input For O=C(C1CCN(c2nnnn2-c2ccccc2)CC1)N1CCc2ccccc2C1 then?
## Output 62.4

## Input For CC(C)C(C(=O)Nc1ccc(S(=O)(=O)N(C)C)cc1)c1ccc(Cl)cc1 (configuration not stated) then?
## Output 86

## Input For O=C(NC1CC1)c1ccc(CSCc2ccccc2Cl)o1 then?
## Output 65.8

## Input For CCc1ccc(C(NCc2nc(N)nc(N(C)C)n2)C(C)C)cc1 (configuration not stated) then?
## Output 4.17

## Input For COc1cc(CN2CCC3(C=Cc4ccccc43)CC2)cc2c1OCO2 then?
## Output 83.9

## Input For COc1ccc(N(CCc2cccc(C)n2)C(=O)C2CCCCC2)cc1 then?
## Output 105

## Input For O=C(C(Cc1c[nH]c2ccccc12)NS(=O)(=O)c1ccc(Cl)cc1)N1CCCCC1 (configuration not stated) then?
## Output 120

## Input For CS(=O)(=O)c1cccc(-c2cnc3[nH]cc(-c4ccc(CCC(=O)O)cc4)c3c2)c1 then?
## Output 52.9

## Input For COc1ccc(OC)c(NCc2ccc3nc(N)nc(N)c3c2Cl)c1 then?
## Output 2.34

## Input For Cc1cc(NCC(C)C)c2n[nH]c(-c3ccccc3)c2n1 then?
## Output 122

## Input For CCCNC(=O)N1CCC2(CC1)CC(=O)c1cc(C)ccc1O2 then?
## Output 61.5

Data credit: the supplement of paper PMC7866885
